ASSAYED_TARGET: Tyrosine-protein kinase ABL1 (Homo sapiens, UniProt P00519)
Sequence (P00519 whole entry): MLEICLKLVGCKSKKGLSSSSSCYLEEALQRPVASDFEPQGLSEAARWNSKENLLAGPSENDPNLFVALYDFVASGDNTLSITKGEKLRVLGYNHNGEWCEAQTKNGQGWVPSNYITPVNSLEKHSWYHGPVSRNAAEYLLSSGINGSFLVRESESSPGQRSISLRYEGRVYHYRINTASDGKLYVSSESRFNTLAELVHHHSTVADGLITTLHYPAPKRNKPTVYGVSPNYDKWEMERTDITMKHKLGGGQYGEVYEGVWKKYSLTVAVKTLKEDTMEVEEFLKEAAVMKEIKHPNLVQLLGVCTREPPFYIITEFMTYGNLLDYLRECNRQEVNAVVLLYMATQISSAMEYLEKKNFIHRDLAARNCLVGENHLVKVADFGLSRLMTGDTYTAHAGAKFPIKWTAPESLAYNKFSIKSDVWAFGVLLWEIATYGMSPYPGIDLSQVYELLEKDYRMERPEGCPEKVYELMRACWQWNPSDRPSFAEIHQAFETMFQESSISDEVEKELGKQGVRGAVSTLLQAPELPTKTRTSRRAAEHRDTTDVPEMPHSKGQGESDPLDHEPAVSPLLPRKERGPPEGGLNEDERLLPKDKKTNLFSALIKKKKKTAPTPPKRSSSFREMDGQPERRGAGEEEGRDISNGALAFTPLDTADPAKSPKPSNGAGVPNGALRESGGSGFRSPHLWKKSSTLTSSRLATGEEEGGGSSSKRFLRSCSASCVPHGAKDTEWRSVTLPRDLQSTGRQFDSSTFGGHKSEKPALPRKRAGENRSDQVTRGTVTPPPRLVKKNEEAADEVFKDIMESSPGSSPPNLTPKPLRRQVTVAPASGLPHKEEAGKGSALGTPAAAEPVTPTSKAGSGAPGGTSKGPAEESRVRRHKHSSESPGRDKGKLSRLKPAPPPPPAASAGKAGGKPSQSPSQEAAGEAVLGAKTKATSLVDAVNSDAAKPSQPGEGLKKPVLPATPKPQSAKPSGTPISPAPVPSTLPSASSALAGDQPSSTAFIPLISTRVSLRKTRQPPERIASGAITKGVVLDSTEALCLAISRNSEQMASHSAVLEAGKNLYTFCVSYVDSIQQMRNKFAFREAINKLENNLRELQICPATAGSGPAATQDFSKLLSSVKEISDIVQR
EXPERIMENTAL_DETAILS: Inhibition of ABL (unknown origin) at 30 uM by microfluidic mobility shift assay relative to control
Give Y when the value for inhibition is at least 30%. Give N when it is less.

Before answering, review these 3 worked examples.
O=S(=O)(c1cccc2cnccc12)N1CCC2(CCCNC2)CC1 = N
c1nc(N2CCC3(CCCOC3)CC2)c2nc[nH]c2n1 = Y
O=S(=O)(c1cccc2cnccc12)N1CCC2(CCC(O)CN2)CC1 (racemic) = N

Please tell me: is the molecule c1nc(N2CCC3(CCNC3)CC2)c2nc[nH]c2n1 at or over 30% in terms of inhibition?
Y

Record: c1nc(N2CCC3(CCCCO3)CC2)c2nc[nH]c2n1
Y

Record: O=C(C1CCC2(CCN(c3ncnc4[nH]cnc34)CC2)NC1)N1CCOCC1 (racemic)
N
